- target-entity: ACAT of HepG2 cells (Homo sapiens, UniProt P35610)
- Construct: endogenous in cells
- Sequence (P35610 whole entry): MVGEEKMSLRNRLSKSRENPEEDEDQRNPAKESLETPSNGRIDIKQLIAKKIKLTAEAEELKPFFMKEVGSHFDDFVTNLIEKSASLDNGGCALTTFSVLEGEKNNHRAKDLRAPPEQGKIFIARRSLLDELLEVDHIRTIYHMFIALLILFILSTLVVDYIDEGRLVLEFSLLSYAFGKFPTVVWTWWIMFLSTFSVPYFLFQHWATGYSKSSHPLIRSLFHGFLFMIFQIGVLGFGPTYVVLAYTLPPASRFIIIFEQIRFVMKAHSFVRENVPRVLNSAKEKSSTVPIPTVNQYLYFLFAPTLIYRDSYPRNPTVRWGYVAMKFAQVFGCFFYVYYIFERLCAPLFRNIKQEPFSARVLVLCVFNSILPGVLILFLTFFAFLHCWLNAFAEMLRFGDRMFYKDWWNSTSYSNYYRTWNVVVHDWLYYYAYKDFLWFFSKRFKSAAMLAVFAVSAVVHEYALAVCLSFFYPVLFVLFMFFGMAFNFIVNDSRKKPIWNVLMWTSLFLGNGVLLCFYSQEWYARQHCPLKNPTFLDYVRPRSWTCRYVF
- experiment-summary: Inhibitory activity against ACAT of HepG2 cells derived from human liver cancer cells
- conditions-used: radio-labelled oleic acid/BSA complex, cholesterol oleate produced
endpoint-name: IC50 (nM)

The following molecules have reported results that may help.
molecule	numeric-result
CCCCCN(Cc1cc(-n2ccnc2)ccc1OC)C(=O)Nc1c(C)cccc1OCCCN1CCN(c2ccccn2)CC1 [Example 17]	363
COc1ccc(-n2ccnc2)cc1CN(C(=O)Nc1c(C)cccc1OCCCN1CCN(c2ccccc2)CC1)C1CCCC1 [Example 72]	262

1. CCCCCN(CCc1cc(-n2ccnc2)cc2c1OCO2)C(=O)Nc1c(C)cccc1OCCCN1CCN(c2ccccc2)CC1 [Example 53]
2. COc1ccc(-n2ccnc2)cc1CN(Cc1ccccc1)C(=O)Nc1c(C)cccc1OCCCN1CCN(c2ccccc2)CC1 [Example 14]
3. COc1ccc(-n2ccnc2)cc1CN(C(=O)Nc1c(C)cccc1OCCCN1CCN(c2ccccc2)CC1)C(C)C [Example 74]
Query block: Order the records so the highest IC50 appears first and the lowest last. List labels; respect the requested ordering.
Result block: 1, 3, 2
(1: 606 nM, 3: 386 nM, 2: 240 nM)
